All values here come from patent US20070104644A1.

tested on: Lewis lung carcinoma (LLC) tumour; experiment: Biodistribution in LLC tumour model in vivo; parameters: species or system C57BL/6 mice; settings: 120 min post injection
assay metric: % ID Urinary (urinary excretion), mean (% ID)
State just the number; it will be interpreted in % ID.

Identify the measured % ID Urinary (urinary excretion), mean of NC(=O)[C@H](Cc1ccc(O)c([123I])c1)NC(=O)[C@H](CCC(=O)O)NC(=O)[C@H](CCC(=O)O)NC(=O)[C@H](CCC(=O)O)NC(=O)[C@H](CCC(=O)O)NC(=O)[C@H](CCC(=O)O)NC(=O)CCN(C1(C(=O)NO)CCCC1)S(=O)(=O)c1ccc(Oc2ccc(F)cc2)cc1 [Compound 21A] for Lewis lung carcinoma (LLC) tumour.
52.08

Look up % ID Urinary (urinary excretion), mean with Lewis lung carcinoma (LLC) tumour for this compound: NC(=O)[C@H](Cc1ccc(O)c([123I])c1)NC(=O)CCOCCOCCOCCOCCOCCOCCOCCOCCOCCOCCOCCNC(=O)CCN(C1(C(=O)NO)CCCC1)S(=O)(=O)c1ccc(Oc2ccc(F)cc2)cc1 [Compound 44A]
9.42

# returns recorded % ID Urinary (urinary excretion), mean (system: Lewis lung carcinoma (LLC) tumour) for NC(=O)[C@H](Cc1ccc(O)c([123I])c1)NC(=O)COCC(=O)NCCOCCOCCOCCNC(=O)[C@H](CCC(=O)O)NC(=O)[C@H](CCC(=O)O)NC(=O)[C@H](CCC(=O)O)NC(=O)[C@H](CCC(=O)O)NC(=O)[C@H](CCC(=O)O)NC(=O)CCN(C1(C(=O)NO)CCCC1)S(=O)(=O)c1ccc(Oc2ccc(F)cc2)cc1 [Compound 38A]
78.75

State its % ID Urinary (urinary excretion), mean on Lewis lung carcinoma (LLC) tumour: NCCCC[C@H](NC(=O)CCN(C1(C(=O)NO)CCCC1)S(=O)(=O)c1ccc(Oc2ccc(F)cc2)cc1)C(=O)N[C@@H](CCCCN)C(=O)N[C@@H](CCCCN)C(=O)N[C@@H](CCCCN)C(=O)N[C@@H](CCCCN)C(=O)NCCOCCOCCOCCNC(=O)COCC(=O)N[C@@H](Cc1ccc(O)c([123I])c1)C(N)=O [Compound 42A]
48.07

Request: % ID Urinary (urinary excretion), mean, test system Lewis lung carcinoma (LLC) tumour, entry NC(=O)[C@H](CCCCNC(=O)CON=Cc1ccc([18F])cc1)NC(=O)CCN(C1(C(=O)NO)CCCC1)S(=O)(=O)c1ccc(Oc2ccc(F)cc2)cc1 [Compound 46B]
19.68
